Test system: SF-539
assay remarks: The IC50 value was measured on SF-539 cell line in CNS tumor type.
Assay type: functional, cell-based
measurement context: Homo sapiens
Give IC50 for every item shown.
In your response, put the unit directly after the numeric value.

*Q* For SF-539, give the measured IC50 of the entry Nc1nc(N)c2nc(CNc3ccc(C(=O)NC(CCCNC(=O)c4ccccc4C(=O)O)C(=O)O)cc3)cnc2n1 (centres undefined)
*A* 3.7 nM

*Q* For SF-539, give the measured IC50 of the entry CN(Cc1cnc2nc(N)nc(N)c2n1)c1ccc(C(=O)N[C@@H](CCC(=O)O)C(=O)O)cc1 [METHOTREXATE]
*A* 35 nM

*Q* For SF-539, give the measured IC50 of the entry Nc1nc(N)c2nc(CNc3ccc(C(=O)NC(CCCCNC(=O)c4ccccc4C(=O)O)C(=O)O)cc3)cnc2n1 (centres undefined)
*A* 26 nM

*Q* For SF-539, give the measured IC50 of the entry Nc1nc(N)c2nc(CNc3ccc(C(=O)NC(CCNC(=O)c4ccccc4C(=O)O)C(=O)O)cc3)cnc2n1 (centres undefined)
*A* 57 nM

###

Tested on: LOX IMVI
assay remarks: The IC50 value was measured on LOX IMVI cell line in melanoma tumor ty
Format: functional, cell-based
measurement context: Homo sapiens
metric: pIC50
Please keep in mind that pIC50 is minus log10 of the molar concentration; only the number is needed.

*Q* State its pIC50 for this molecule: Nc1nc(N)c2nc(CNc3ccc(C(=O)NC(CCCNC(=O)c4ccccc4C(=O)O)C(=O)O)cc3)cnc2n1 (stereo not drawn)
*A* 9.40

*Q* State its pIC50 for this molecule: CN(Cc1cnc2nc(N)nc(N)c2n1)c1ccc(C(=O)N[C@@H](CCC(=O)O)C(=O)O)cc1 [METHOTREXATE]
*A* 7.59

*Q* State its pIC50 for this molecule: Nc1nc(N)c2nc(CNc3ccc(C(=O)NC(CCNC(=O)c4ccccc4C(=O)O)C(=O)O)cc3)cnc2n1 (stereo not drawn)
*A* 8.36

###

System: NCI-H23
assay remarks: The IC50 value was measured on NCl-H23 cell line in NSCL tumor type.
Format: functional, cell-based
measurement context: Homo sapiens
metric: pIC50
Please keep in mind that pIC50 is minus log10 of the molar concentration; only the number is needed.

*Q* For NCI-H23, give the measured pIC50 of the entry Nc1nc(N)c2nc(CNc3ccc(C(=O)NC(CCNC(=O)c4ccccc4C(=O)O)C(=O)O)cc3)cnc2n1 (centres undefined)
*A* 7.49

*Q* For NCI-H23, give the measured pIC50 of the entry Nc1nc(N)c2nc(CNc3ccc(C(=O)NC(CCCNC(=O)c4ccccc4C(=O)O)C(=O)O)cc3)cnc2n1 (centres undefined)
*A* 8.36

*Q* For NCI-H23, give the measured pIC50 of the entry Nc1nc(N)c2nc(CNc3ccc(C(=O)NC(CCCCNC(=O)c4ccccc4C(=O)O)C(=O)O)cc3)cnc2n1 (centres undefined)
*A* 8.04

*Q* For NCI-H23, give the measured pIC50 of the entry CN(Cc1cnc2nc(N)nc(N)c2n1)c1ccc(C(=O)N[C@@H](CCC(=O)O)C(=O)O)cc1 [METHOTREXATE]
*A* 7.37

###

Give pIC50 for every item shown.
Test system: NCI-H460
assay remarks: The IC50 value was measured on NCl-H460 cell line in NSCL tumor type
Assay type: functional, cell-based
measurement context: Homo sapiens
Please keep in mind that pIC50 is minus log10 of the molar concentration; only the number is needed.

*Q* For NCI-H460, give the measured pIC50 of the entry Nc1nc(N)c2nc(CNc3ccc(C(=O)NC(CCCNC(=O)c4ccccc4C(=O)O)C(=O)O)cc3)cnc2n1 (centres undefined)
*A* 9.30

*Q* For NCI-H460, give the measured pIC50 of the entry Nc1nc(N)c2nc(CNc3ccc(C(=O)NC(CCNC(=O)c4ccccc4C(=O)O)C(=O)O)cc3)cnc2n1 (centres undefined)
*A* 7.85

*Q* For NCI-H460, give the measured pIC50 of the entry Nc1nc(N)c2nc(CNc3ccc(C(=O)NC(CCCCNC(=O)c4ccccc4C(=O)O)C(=O)O)cc3)cnc2n1 (centres undefined)
*A* 8.38

*Q* For NCI-H460, give the measured pIC50 of the entry CN(Cc1cnc2nc(N)nc(N)c2n1)c1ccc(C(=O)N[C@@H](CCC(=O)O)C(=O)O)cc1 [METHOTREXATE]
*A* 7.55

###

study target: Dihydrofolate reductase (Homo sapiens) (UniProt P00374)
Sequence (whole entry): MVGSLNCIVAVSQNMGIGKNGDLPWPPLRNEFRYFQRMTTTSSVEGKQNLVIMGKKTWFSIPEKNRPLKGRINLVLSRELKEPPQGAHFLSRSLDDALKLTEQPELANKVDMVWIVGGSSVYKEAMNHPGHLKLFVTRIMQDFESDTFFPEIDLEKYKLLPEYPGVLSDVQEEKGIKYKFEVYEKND
metric: IC50/[E] (nM milliunit-1)

*Q* State its IC50/[E] (nM milliunit-1) for this molecule: Nc1nc(N)c2nc(CNc3ccc(C(=O)NC(CCCNC(=O)c4ccc(C(=O)O)cc4)C(=O)O)cc3)cnc2n1 (stereo unspecified)
*A* 2.8

*Q* State its IC50/[E] (nM milliunit-1) for this molecule: Nc1nc(N)c2nc(CNc3ccc(C(=O)NC(CCNC(=O)c4ccccc4C(=O)O)C(=O)O)cc3)cnc2n1 (stereo unspecified)
*A* 2.5

*Q* State its IC50/[E] (nM milliunit-1) for this molecule: Nc1nc(N)c2nc(CNc3ccc(C(=O)NC(CCCNC(=O)c4ccccc4C(=O)O)C(=O)O)cc3)cnc2n1 (stereo unspecified)
*A* 2

*Q* State its IC50/[E] (nM milliunit-1) for this molecule: Nc1nc(N)c2nc(CNc3ccc(C(=O)NC(CNC(=O)c4ccccc4C(=O)O)C(=O)O)cc3)cnc2n1 (stereo unspecified)
*A* 3.5

*Q* State its IC50/[E] (nM milliunit-1) for this molecule: Nc1nc(N)c2nc(CNc3ccc(C(=O)NC(CCCNC(=O)c4cccc(C(=O)O)c4)C(=O)O)cc3)cnc2n1 (stereo unspecified)
*A* 2.2

*Q* State its IC50/[E] (nM milliunit-1) for this molecule: Nc1nc(N)c2nc(CNc3ccc(C(=O)NC(CCCNC(=O)c4cc(Cl)c(Cl)cc4C(=O)O)C(=O)O)cc3)cnc2n1 (stereo unspecified)
*A* 2.4

###

Tested on: HCT-15
assay remarks: The IC50 value was measured on HCT-15 cell line in colon tumor type.
Type: functional, cell-based
measurement context: Homo sapiens
metric: IC50 (nM)
Please state the figure in nM; there is no need to write the unit.

*Q* For HCT-15, give the measured IC50 of the entry Nc1nc(N)c2nc(CNc3ccc(C(=O)NC(CCCNC(=O)c4ccccc4C(=O)O)C(=O)O)cc3)cnc2n1 (centres undefined)
*A* 1.2

*Q* For HCT-15, give the measured IC50 of the entry CN(Cc1cnc2nc(N)nc(N)c2n1)c1ccc(C(=O)N[C@@H](CCC(=O)O)C(=O)O)cc1 [METHOTREXATE]
*A* 30

*Q* For HCT-15, give the measured IC50 of the entry Nc1nc(N)c2nc(CNc3ccc(C(=O)NC(CCNC(=O)c4ccccc4C(=O)O)C(=O)O)cc3)cnc2n1 (centres undefined)
*A* 7.2

*Q* For HCT-15, give the measured IC50 of the entry Nc1nc(N)c2nc(CNc3ccc(C(=O)NC(CCCCNC(=O)c4ccccc4C(=O)O)C(=O)O)cc3)cnc2n1 (centres undefined)
*A* 5.2

###

Tested on: NCI-H522
assay remarks: The IC50 value was measured on NCl-H522 cell line in NSCL tumor type.
Format: functional, cell-based
measurement context: Homo sapiens
Give IC50 for every item shown.
Please state the figure in µM; there is no need to write the unit.

*Q* State its IC50 for this compound: Nc1nc(N)c2nc(CNc3ccc(C(=O)NC(CCCNC(=O)c4ccccc4C(=O)O)C(=O)O)cc3)cnc2n1 (centres undefined)
*A* 0.023

*Q* State its IC50 for this compound: CN(Cc1cnc2nc(N)nc(N)c2n1)c1ccc(C(=O)N[C@@H](CCC(=O)O)C(=O)O)cc1 [METHOTREXATE]
*A* 0.229

###

Tested on: PC-3
assay remarks: The IC50 value was measured on PC-3 cell line in prostate tumor type.
Assay type: functional, cell-based
measurement context: Homo sapiens
metric: IC50 (nM)
Please state the figure in nM; there is no need to write the unit.

*Q* State its IC50 for this compound: Nc1nc(N)c2nc(CNc3ccc(C(=O)NC(CCNC(=O)c4ccccc4C(=O)O)C(=O)O)cc3)cnc2n1 (centres undefined)
*A* 6.7

*Q* State its IC50 for this compound: CN(Cc1cnc2nc(N)nc(N)c2n1)c1ccc(C(=O)N[C@@H](CCC(=O)O)C(=O)O)cc1 [METHOTREXATE]
*A* 2

*Q* State its IC50 for this compound: Nc1nc(N)c2nc(CNc3ccc(C(=O)NC(CCCCNC(=O)c4ccccc4C(=O)O)C(=O)O)cc3)cnc2n1 (centres undefined)
*A* 5

Values compiled from ChEMBL document CHEMBL1130284.
